- TEST_DESCRIPTION: CCTE_Padilla_ZF_144hpf_TERATOSCORE: (Legacy) CCTE's 144 Hour Post-fertilization zebrafish Assay Teratoscore, Padilla Lab (AID 2283679)
Activity calls are given as the source filed them. Rule for the calls: active = hit-call score of the fitted dose curve at least 0.9, where 1 is the maximum; inactive = score below 0.9.
Field 'call' accepts Yes for active, No for inactive

> print(dat)
                                   compound  class.label
1  CCN(Cc1c(F)cccc1Cl)c1c([N+](=O)[O-])cc(C(F)(F)F)cc1[N+](=O)[O-]          Yes
2                                     COCCO           No
3  CCC(C)OC(=O)N1CCCCC1CCO (stereo not given)           No
4  CCCCC(CC)COC(=O)c1ccccc1C(=O)O (stereo not given)          Yes
5                   CCSC(=O)N(CC(C)C)CC(C)C           No

Lookup: Please state the recorded outcome for this compound: C#CCOC(=O)[C@@H](C)Oc1ccc(Oc2ncc(Cl)cc2F)cc1
Found: Yes

Lookup: Please state the recorded outcome for this compound: N[C@@H](Cc1cc(I)c(Oc2ccc(O)c(I)c2)c(I)c1)C(=O)O
Found: Yes

Lookup: Please state the recorded outcome for this compound: Oc1ccc(C(c2ccc(O)cc2)C(Cl)(Cl)Cl)cc1
Found: Yes

Lookup: Please state the recorded outcome for this compound: N#CSCSc1nc2ccccc2s1
Found: Yes

Lookup: Please state the recorded outcome for this compound: C[C@]12CC[C@@H]3c4ccc(O)cc4C[C@@H](CCCCCCCCCS(=O)CCCC(F)(F)C(F)(F)F)[C@H]3[C@@H]1CC[C@@H]2O (stereo not given in full)
Found: No

Lookup: Please state the recorded outcome for this compound: CCOC(=O)c1ccc(O)cc1
Found: Yes

Lookup: Please state the recorded outcome for this compound: CCCCOCCOCCOCc1cc2c(cc1CCC)OCO2
Found: Yes

Lookup: Please state the recorded outcome for this compound: O=C(O)C1(C(=O)Nc2ccc(Cl)cc2Cl)CC1
Found: Yes

Lookup: Please state the recorded outcome for this compound: CCCN(CCC)c1c([N+](=O)[O-])cc(C(F)(F)F)c(N)c1[N+](=O)[O-]
Found: No

Lookup: Please state the recorded outcome for this compound: CC(=O)S[C@@H]1CC2=CC(=O)CC[C@]2(C)[C@H]2CC[C@@]3(C)[C@@H](CC[C@@]34CCC(=O)O4)[C@H]12
Found: Yes

---

- TARGET_OF_ASSAY: Paired box protein Pax-6 (Homo sapiens)
- TEST_DESCRIPTION: ATG_Pax6_CIS: Attagene CIS-FACTORIAL HepG2 Assay for human Paired Box 6 (PAX6) (AID 2282956)
- ASSAY_SETUP: HepG2 CIS-FACTORIAL PAX6 reporter transcription, RNA readout; actives raise or lower the signal
Activity calls are given as the source filed them. Rule for the calls: active = hit-call score of the fitted dose curve at least 0.9, where 1 is the maximum; inactive = score below 0.9.
Field 'call' accepts active, inactive

These recorded examples may help you get a feel for the data.
> print(dat)
                              smiles.string  class.label
1                c1ccc2[nH]c(-c3cscn3)nc2c1     inactive
2                        CCNc1nc(N)nc(Cl)n1     inactive
3  CCN(Cc1c(F)cccc1Cl)c1c([N+](=O)[O-])cc(C(F)(F)F)cc1[N+](=O)[O-]       active

Lookup: Please state the recorded outcome for this molecule: O=C(O)C1(C(=O)Nc2ccc(Cl)cc2Cl)CC1
Found: inactive
